- target.entity: PIK3CA (human) (UniProt P42336)
- Sequence (P42336 whole entry, looked up): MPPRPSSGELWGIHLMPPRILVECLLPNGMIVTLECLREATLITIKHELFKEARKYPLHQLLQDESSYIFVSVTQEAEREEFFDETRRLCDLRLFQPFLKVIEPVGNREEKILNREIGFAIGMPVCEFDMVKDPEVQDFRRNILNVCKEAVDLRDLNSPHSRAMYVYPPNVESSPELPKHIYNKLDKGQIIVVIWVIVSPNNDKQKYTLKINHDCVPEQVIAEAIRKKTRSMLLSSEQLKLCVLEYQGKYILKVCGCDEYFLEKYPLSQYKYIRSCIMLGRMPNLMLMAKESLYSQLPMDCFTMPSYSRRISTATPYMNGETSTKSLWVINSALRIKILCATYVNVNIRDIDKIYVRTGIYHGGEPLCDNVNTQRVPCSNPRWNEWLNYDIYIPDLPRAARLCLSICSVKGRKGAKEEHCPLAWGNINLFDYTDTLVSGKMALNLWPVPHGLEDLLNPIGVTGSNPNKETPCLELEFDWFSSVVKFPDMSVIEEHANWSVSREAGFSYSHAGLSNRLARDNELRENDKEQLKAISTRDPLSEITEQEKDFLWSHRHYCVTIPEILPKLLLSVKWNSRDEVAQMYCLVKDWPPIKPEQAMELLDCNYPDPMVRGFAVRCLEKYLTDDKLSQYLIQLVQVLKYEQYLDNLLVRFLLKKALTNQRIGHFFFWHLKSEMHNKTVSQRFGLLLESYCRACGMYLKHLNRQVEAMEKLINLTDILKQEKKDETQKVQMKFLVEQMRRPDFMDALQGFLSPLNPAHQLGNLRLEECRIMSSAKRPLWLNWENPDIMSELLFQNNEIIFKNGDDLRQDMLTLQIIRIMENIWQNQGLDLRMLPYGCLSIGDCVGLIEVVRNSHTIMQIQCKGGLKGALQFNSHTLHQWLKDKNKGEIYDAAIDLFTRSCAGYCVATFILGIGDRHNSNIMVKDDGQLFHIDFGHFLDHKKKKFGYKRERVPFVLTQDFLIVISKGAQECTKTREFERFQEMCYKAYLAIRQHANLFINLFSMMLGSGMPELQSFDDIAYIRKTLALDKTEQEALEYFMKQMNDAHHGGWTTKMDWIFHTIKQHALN
Below, each entry is listed alongside its reported log10 of IC50.
// units: nM (pre-log); metric: IC50; scale: log10

>  <mol>
CN(C)C(=O)c1ccc(-c2nc(N3CCOCC3)c3cnn(C4CCN(Cc5ccccc5)CC4)c3n2)cc1

>  <log10 of IC50>
4.00

$$$$
>  <mol>
c1cc2cc(-c3nc(N4CCOCC4)c4cnn([C@H]5CCCNC5)c4n3)ccc2[nH]1

>  <log10 of IC50>
4.00

$$$$
>  <mol>
c1ccc(-n2ncc3c(N4CCOCC4)nc(-c4cncnc4)nc32)cc1

>  <log10 of IC50>
2.64

$$$$
>  <mol>
CNC(=O)Nc1ccc(-c2nc(N3CCOCC3)c3cn[nH]c3n2)cc1

>  <log10 of IC50>
1.15

$$$$
>  <mol>
O=C(O)c1cccc(-c2nc(N3CCOCC3)c3cnn(C4CCN(Cc5ccccc5)CC4)c3n2)c1

>  <log10 of IC50>
4.00

$$$$
>  <mol>
Clc1ccccc1CN1CCC(n2ncc3c(N4CCOCC4)nc(-c4ccc5[nH]ccc5c4)nc32)CC1

>  <log10 of IC50>
3.23

$$$$
>  <mol>
c1ccc(CN2CCC(n3ncc4c(N5CCOCC5)nc(-c5cccc6c5sc5ccccc56)nc43)CC2)cc1

>  <log10 of IC50>
3.94

$$$$
>  <mol>
CN(C)C(=O)C=CCN1CCC(n2ncc3c(N4CCOCC4)nc(-c4ccc5[nH]ccc5c4)nc32)CC1

>  <log10 of IC50>
2.68

$$$$

The recorded log10 of IC50 with PIK3CA (human) (UniProt P42336) for CNC(=O)Nc1ccc(-c2nc(N3CCOCC3)c3cnn(C4CCN(COC)CC4)c3n2)cc1 was 3.19

The recorded log10 of IC50 with PIK3CA (human) (UniProt P42336) for NC(=O)Cc1cccc(-c2nc(N3CCOCC3)c3cnn(-c4ccccc4)c3n2)c1 was 2.55

The recorded log10 of IC50 with PIK3CA (human) (UniProt P42336) for CC(C)(C)OC(=O)N1CCC(n2ncc3c(N4CCOCC4)nc(-c4ccc(NC(=O)Nc5cccnc5)cc4)nc32)CC1 was 1.51

The recorded log10 of IC50 with PIK3CA (human) (UniProt P42336) for Nc1ccc(-c2nc(N3CCOCC3)c3cn[nH]c3n2)cc1 was 3.21

The recorded log10 of IC50 with PIK3CA (human) (UniProt P42336) for CNC(=O)Nc1ccc(-c2nc(N3CCOCC3)c3cnn(C4CCN(C(N)=O)CC4)c3n2)cc1 was 1.82
